- TEST_METHOD_NOTES: Single dose pharmacokinetics
- Format: in vivo, CD-1 female mice
- CONDITION_CONTEXT: female, CD-1, mouse, iv; 12 mg/kg single i.v., mice, plasma; read-out: AUC0-24 h
EXPERIMENTAL_READOUT: AUC(0-t) (µg·h/mL)
Provide only the numeric value, understood in µg·h/mL.

Sample CCCCCCCCCCN[C@]1(C)C[C@H](OC2C(O)[C@@H](O)C(CO)O[C@@H]2Oc2c3cc4cc2Oc2ccc(cc2Cl)[C@@H](O)[C@@H](NC(=O)[C@@H](CC(C)C)NC)C(=O)N[C@@H](CC(N)=O)C(=O)N[C@H]4C(=O)N[C@H]2C(=O)N[C@H](C(=O)N[C@H](C(=O)NCCCNC(=O)[C@H](O)[C@@H](O)[C@H](OC4OC(CO)C(O)C(O)[C@H]4O)[C@H](O)CO)c4cc(O)cc(O)c4-c4cc2ccc4O)[C@H](O)c2ccc(c(Cl)c2)O3)OC(C)[C@@H]1O (stereo partly shown) [Compound 7] ; AUC(0-t) observed: 562

====

- TEST_METHOD_NOTES: Systemic toxicity (LD50)
- Set-up: species or system CD-1 female mice
- CONDITION_CONTEXT: female, CD-1, mouse, in vivo, iv, single-dose i.v., mice
EXPERIMENTAL_READOUT: LD50 at 14 days

Record CCCCCCCCCCN[C@]1(C)C[C@H](OC2C(O)[C@@H](O)C(CO)O[C@@H]2Oc2c3cc4cc2Oc2ccc(cc2Cl)[C@@H](O)[C@@H](NC(=O)[C@@H](CC(C)C)NC)C(=O)N[C@@H](CC(N)=O)C(=O)N[C@H]4C(=O)N[C@H]2C(=O)N[C@H](C(=O)N[C@H](C(=O)NCCCNC(=O)[C@H](O)[C@@H](O)[C@H](OC4OC(CO)C(O)C(O)[C@H]4O)[C@H](O)CO)c4cc(O)cc(O)c4-c4cc2ccc4O)[C@H](O)c2ccc(c(Cl)c2)O3)OC(C)[C@@H]1O (stereo partly shown) [Compound 7] , field LD50 at 14 days: > 100 mg/kg

====

- TEST_METHOD_NOTES: Single dose pharmacokinetics
- Type: in vivo, CD-1 female mice
- CONDITION_CONTEXT: female, CD-1, mouse, plasma, iv, 12 mg/kg, 12 mg/kg single i.v., mice, read-out: Cmax
EXPERIMENTAL_READOUT: Cmax (µg/mL)
Note: unit µg/mL is implicit; provide only the numeric part.

Measured Cmax, CCCCCCCCCCN[C@]1(C)C[C@H](OC2C(O)[C@@H](O)C(CO)O[C@@H]2Oc2c3cc4cc2Oc2ccc(cc2Cl)[C@@H](O)[C@@H](NC(=O)[C@@H](CC(C)C)NC)C(=O)N[C@@H](CC(N)=O)C(=O)N[C@H]4C(=O)N[C@H]2C(=O)N[C@H](C(=O)N[C@H](C(=O)NCCCNC(=O)[C@H](O)[C@@H](O)[C@H](OC4OC(CO)C(O)C(O)[C@H]4O)[C@H](O)CO)c4cc(O)cc(O)c4-c4cc2ccc4O)[C@H](O)c2ccc(c(Cl)c2)O3)OC(C)[C@@H]1O (stereo partly shown) : 703
